# Tested on: Plasmodium berghei
# EXPERIMENT DESCRIPTION: Screen against P. berghei liver stage (PbLuc), transformed with Luciferase, at 10uM
# Format: functional, HepG2
# PARTICULARS: tested at 10 uM
In all, about 69,000 compounds went through this assay and about 8,600 (12%) showed an effect of 50% or more. This excerpt belongs to a sample that is enriched for strong results.
Would you please tag the item TRUE when its INHIBITION is 30% or above, and FALSE when it is below?

Reference set, count: 4
# COMPOUND, LABEL CLASS
data = [
    ("Cn1cc(C2CCCN2CCC(=O)N2CCc3sccc3C2)cn1 (stereo not given)", "FALSE"),
    ("Cc1ccc(F)c(NCc2ccc(C(=O)N(C)C)[nH]2)c1", "FALSE"),
    ("CCC[C@H]1CN(S(C)(=O)=O)C[C@@H]1NC(=O)COC(C)C", "TRUE"),
    ("CC(C1CCN(Cc2cnn(C)c2C2CC2)CC1)N1CCCC1 (stereo not given)", "TRUE"),
]

Data request: // inclusive: INHIBITION at least 30%? input: CC(C1CCN(Cc2cnn(C)c2C2CC2)CC1)N1CCN(C)CC1 (stereo not given)
Data returned: FALSE

* * *

# Test system: Plasmodium berghei
# EXPERIMENT DESCRIPTION: Screen against P. berghei liver stage (PbLuc), transformed with Luciferase, at 10uM
# Format: functional, HepG2
# PARTICULARS: tested at 10 uM
Among all 69,000 compounds or so, about 8,600 (12%) showed an effect of 50% or more. Many of the other results were omitted from the sample, so strong results are more common in it than they were.
Each record here notes measured INHIBITION.
Numbers only here, please. The scale is %.

See these solved cases before continuing.
# GIVEN SMILES, RECORDED VALUE
records = [
    ("CNC(=O)[C@H]1C[C@H]2CN(C(=O)Nc3ccccc3)C[C@@H]1O2", -26.5),
    ("O=C(NCc1ccccc1)N1C[C@@H]2C[C@H](C(=O)N3CCCC3)[C@H](C1)O2", 15.3),
    ("CN(C)C(=O)[C@H]1C[C@H]2CN(S(=O)(=O)Cc3ccccc3)C[C@@H]1O2", 19.9),
    ("COC(=O)c1cc(OC)ccc1NCC(=O)NCC(=O)N1CCCC1", 2.03),
]

Kindly review the next compound as well.
Data request: State the recorded INHIBITION for this entry: "O=C(Nc1ccccc1)[C@H]1C[C@H]2CN(C(=O)Nc3ccccc3)C[C@@H]1O2"
Data returned: 7.31

* * *

# Test system: Plasmodium berghei
# EXPERIMENT DESCRIPTION: Screen against P. berghei liver stage (PbLuc), transformed with Luciferase, at 10uM
# Assay type: functional, HepG2
# PARTICULARS: tested at 10 uM
The whole screen tested about 69,000 compounds, of which about 8,600 (12%) showed an effect of 50% or more. The full list was thinned out, with strong results kept by preference.
PARAMETER: INHIBITION (%)
Numbers only here, please. The scale is %.

See these solved cases before continuing.
# COMPOUND, RECORDED VALUE
data = [
    ("CCCn1cc(NC(=O)c2ccncc2)ccc1=O", 50.8),
    ("COCC1CN(Cc2cc(C)on2)Cc2cn(CC3CCCC3)nc21 (stereo unspecified)", 15.3),
    ("CCCn1cc(NC(=O)c2cccc3cccnc23)ccc1=O", -1.04),
]

Data request: State the recorded INHIBITION for this entry: "O=C(NCc1ccco1)[C@H]1C[C@@H]2CCN(c3ccncn3)C[C@@H]2O1"
Data returned: 21.7

Data request: Would you mind doing "CCCn1cc(NC(=O)c2ccc(S(=O)(=O)CC)cc2)ccc1=O" as well?
Data returned: 60.3

Data request: Would you mind doing "CC(=O)N1Cc2ccccc2C[C@H]1C(=O)Nc1ccccn1" as well?
Data returned: 28.7

Data request: Would you mind doing "NC(=O)N1CC[C@H](O)[C@@H]1Cc1ccccc1" as well?
Data returned: 46.9

* * *

# System: Plasmodium berghei
# EXPERIMENT DESCRIPTION: Screen against P. berghei liver stage (PbLuc), transformed with Luciferase, at 10uM
# Type: functional, HepG2
# PARTICULARS: tested at 10 uM
In all, about 69,000 compounds went through this assay and about 8,600 (12%) showed an effect of 50% or more. This excerpt belongs to a sample that is enriched for strong results.
For each record, check the reported INHIBITION: if it is below 40% write T, else write F.

Reference set, count: 5
# COMPOUND, LABEL CLASS
rows = [
    ("CCCn1[nH]c(CNc2cccc(Cl)c2)nc1=O", "F"),
    ("Cc1cnccc1NCCNC(=O)C1CCCN(Cc2ccco2)C1 (stereo unspecified)", "T"),
    ("Cc1ccc(NCCCNC(=O)C2CCCN(Cc3ccco3)C2)nc1 (stereo unspecified)", "F"),
    ("c1cnc(-c2cnc(N3CCCCC3)nc2C2CCCO2)cn1 (stereo unspecified)", "T"),
    ("c1cnc(-c2cnc(N3CCSCC3)nc2C2CC2)cn1", "F"),
]

Data request: Consider the compound CN(CCCc1cnn(C)c1)C(=O)C1CCCN(C2CCCC2)C1 (stereo unspecified) . Is its INHIBITION strictly less than 40%?
Data returned: T

* * *

# Tested on: Plasmodium berghei
# EXPERIMENT DESCRIPTION: Screen against P. berghei liver stage (PbLuc), transformed with Luciferase, at 10uM
# Assay type: functional, HepG2
# PARTICULARS: tested at 10 uM
The whole screen tested about 69,000 compounds, of which about 8,600 (12%) showed an effect of 50% or more. The sample as a whole holds a higher share of strong results than the screen did.
PARAMETER: INHIBITION

# COMPOUND, RECORDED VALUE
records = [
    ("Cc1ccc(CNC2CCCc3c2cnn3Cc2ccccc2)s1 (configuration not stated)", "60.9%"),
    ("CN1C(=O)C2(CCN(S(C)(=O)=O)CC2)c2cc(F)ccc21", "17.7%"),
    ("CN(C)CC(=O)NC1CC(C)(C)Cc2nc(C(C)(C)C)ncc21 (configuration not stated)", "43.6%"),
    ("Cc1cccc(CNC2CCCc3c2cnn3Cc2ccccc2)c1 (configuration not stated)", "26.4%"),
    ("CCN(Cc1ccc2c(c1)OCO2)S(=O)(=O)N(C)C", "-21.9%"),
    ("CN(C)CCOCc1nnc2n1CCN(Cc1ccc(F)cc1)CC2", "69.8%"),
]

Data request: State the recorded INHIBITION for this entry: "COc1ccc(CN2CCc3nnc(COCCN(C)C)n3CC2)cc1"
Data returned: 22.4%

Data request: Would you mind doing CCn1ncc2c1CCCC2NCc1ccc(C)s1 (configuration not stated) as well?
Data returned: -21.9%

Data request: Would you mind doing CCn1ncc2c1CCCC2NCc1ccc(OC)c(C)c1 (configuration not stated) as well?
Data returned: 38%

Data request: Would you mind doing CCn1ncc2c1CCCC2NCc1cscn1 (configuration not stated) as well?
Data returned: 35.4%

Data request: Would you mind doing CCn1ncc2c1CCCC2NCc1ccc(OC)c(F)c1 (configuration not stated) as well?
Data returned: 21.5%

Data request: Would you mind doing CCn1ncc2c1CCCC2NCC1=Cc2ccccc2OC1 (configuration not stated) as well?
Data returned: 63.9%

* * *

# System: Plasmodium berghei
# EXPERIMENT DESCRIPTION: Screen against P. berghei liver stage (PbLuc), transformed with Luciferase, at 10uM
# Type: functional, HepG2
# PARTICULARS: tested at 10 uM
The campaign covered roughly 69,000 compounds. About 8,600 (12%) showed an effect of 50% or more. Only a selection was taken, and strong results are over-represented in it overall.
PARAMETER: INHIBITION (%)
Numbers only here, please. The scale is %.

Data request: Return INHIBITION measured with Plasmodium berghei given this compound: "Cn1nc(CNC(=O)C2CC2)cc1C1CC1"
Data returned: -62.4

Data request: Would you mind doing "Cc1ccccc1CNC(=O)N1C[C@@H]2C[C@H](C(=O)N(C)C)[C@H](C1)O2" as well?
Data returned: 5.63

Data request: Would you mind doing "Cc1nc(C)c(CC(=O)Nc2nnc(C3CC3)s2)c(=O)[nH]1" as well?
Data returned: -0.18

Data request: Would you mind doing Cc1cnn(CC(C)NCC(=O)NCCOc2ccccc2)c1 (stereo unspecified) as well?
Data returned: -0.96

Data request: Would you mind doing O=C1CC(c2ccc(C(F)(F)F)cc2)c2snc(C(=O)O)c2N1 (stereo unspecified) as well?
Data returned: 42.4

Data request: Would you mind doing "CN(C)c1ccc(C(=O)NCc2csc(Br)c2)cn1" as well?
Data returned: 1.75

Data request: Would you mind doing "Cc1ncc(CN2CCOCC2)c2cc(C(=O)c3ccc(Br)cc3)oc12" as well?
Data returned: -21.8

Data request: Would you mind doing COCCC1COC2(CCN(C(=O)c3ccsc3)CC2)C1 (stereo unspecified) as well?
Data returned: 57.9

Data request: Would you mind doing "Cc1cc(C)n(-c2cncc(NCCNC(=O)C(C)C)n2)n1" as well?
Data returned: -23.5

Data request: Would you mind doing Cc1nc(C)n(CC2CCCCN2Cc2nnc(-c3ccco3)o2)n1 (stereo unspecified) as well?
Data returned: -9.07

Data request: Would you mind doing O=C1CC(c2cccc(Cl)c2)c2snc(C(=O)O)c2N1 (stereo unspecified) as well?
Data returned: 55.7

Data request: Would you mind doing "COCC(=O)N1CCC(c2cccc(Cc3ccc(F)cc3)n2)CC1" as well?
Data returned: 54

Data request: Would you mind doing "Cc1nc(NC(=O)c2cccnc2N2CCOCC2)sc1C" as well?
Data returned: 62.9

Data request: Would you mind doing Cc1ncc(CNCC(C)O)c2cc(C(=O)c3ccc(Br)cc3)oc12 (stereo unspecified) as well?
Data returned: 50.5

Data request: Would you mind doing CC(O)CNC(=O)Nc1ccc(Br)cc1Br (stereo unspecified) as well?
Data returned: 29.1

Data request: Would you mind doing "Cc1ncc(CN2CCCC2)c2cc(C(=O)c3ccc(Br)cc3)oc12" as well?
Data returned: 44.5

Data request: Would you mind doing O=C1CC(c2ccc(F)c(F)c2)c2snc(C(=O)O)c2N1 (stereo unspecified) as well?
Data returned: 27.6

Data request: Would you mind doing "CCc1cc(=O)[nH]c(-n2nc(C3CC3)cc2NC(=O)C2CC2)n1" as well?
Data returned: 91
